Data provenance: ChEMBL document CHEMBL1136217

assay: Area under curve (AUC) following ip administration at 1 mg/kg; format: ADME, organism-based; design: dose 1 mg/kg, route intraperitoneal; conditions: in vivo
Measured Quantity: AUC (ng·h/mL)

[1] O=C1Nc2ccc(-c3cccnc3)cc2/C1=C/c1ccc[nH]1
[2] O=C1Nc2cnc(-c3cccnc3)cc2/C1=C/c1ccc[nH]1
Ask: Just curious, which one has the larger AUC reading, 1 or 2 ? Lab log: write the label of the selected item as the result.
Result: 1
(1: 7690 ng·h/mL, 2: 4580 ng·h/mL)
